# Test system: HeLa Kyoto
# ASSAY EXPLANATION: thermal stability score vs G1/S (z-score of summed log2 fold changes over temperatures); higher = more thermally stable than in G1/S
# PROTOCOL CONDITIONS: cell cycle stage: mitosis
# maps each entry to its thermal stability score
READOUT TYPE: thermal stability score

1. MDGEEKTYGGCEGPDAMYVKLISSDGHEFIVKREHALTSGTIKAMLSGPGQFAENETNEVNFREIPSHVLSKVCMYFTYKVRYTNSSTEIPEFPIAPEIALELLMAANFLDC [TCEB1] ... -1.62
2. MAMRQTPLTCSGHTRPVVDLAFSGITPYGYFLISACKDGKPMLRQGDTGDWIGTFLGHKGAVWGATLNKDATKAATAAADFTAKVWDAVSGDELMTLAHKHIVKTVDFTQDSNYLLTGGQDKLLRIYDLNKPEAEPKEISGHTSGIKKALWCSEDKQILSADDKTVRLWDHATMTEVKSLNFNMSVSSMEYIPEGEILVITYGRSIAFHSAVSLDPIKSFEAPATINSASLHPEKEFLVAGGEDFKLYKYDYNSGEELESYKGHFGPIHCVRFSPDGELYASGSEDGTLRLWQTVVGKTYGLWKCVLPEEDSGELAKPKIGFPETTEEELEEIASENSDCIFPSAPDVKA [STRAP] ... -3.1
3. MTTYSDKGAKPERGRFLHFHSVTFWVGNAKQATSFYCSKMGFEPLAYRGLETGSREVVSHVIKQGKIVFVLSSALNPWNKEMGDHLVKHGDGVKDIAFEVEDCDYIVQKARERGAKIMREPWVEQDKFGKVKFAVLQTYGDTTHTLVEKMNYIGQFLPGYEAPAFMDPLLPKLPKCSLEMIDHIVGNQPDQEMVSASEWYLKNLQFHRFWSVDDTQVHTEYSSLRSIVVANYEESIKMPINEPAPGKKKSQIQEYVDYNGGAGVQHIALKTEDIITAIRHLRERGLEFLSVPSTYYKQLREKLKTAKIKVKENIDALEELKILVDYDEKGYLLQIFTKPVQDRPTLFLEVIQRHNHQGFGAGNFNSLFKAFEEEQNLRGNLTNMETNGVVPGM [HPD] ... 1.46
4. MNQEKLAKLQAQVRIGGKGTARRKKKVVHRTATADDKKLQSSLKKLAVNNIAGIEEVNMIKDDGTVIHFNNPKVQASLSANTFAITGHAEAKPITEMLPGILSQLGADSLTSLRKLAEQFPRQVLDSKAPKPEDIDEEDDDVPDLVENFDEASKNEAN [BTF3L4] ... -1.23
5. MAGVACLGKAADADEWCDSGLGSLGPDAAAPGGPGLGAELGPGLSWAPLVFGYVTEDGDTALHLAVIHQHEPFLDFLLGFSAGTEYMDLQNDLGQTALHLAAILGETSTVEKLYAAGAGLCVAERRGHTALHLACRVGAHACARALLQPRPRRPREAPDTYLAQGPDRTPDTNHTPVALYPDSDLEKEEEESEEDWKLQLEAENYEGHTPLHVAVIHKDVEMVRLLRDAGADLDKPEPTCGRSPLHLAVEAQAADVLELLLRAGANPAARMYGGRTPLGSAMLRPNPILARLLRAHGAPEPEGEDEKSGPCSSSSDSDSGDEGDEYDDIVVHSSRSQTRLPPTPASKPLPDDPRPV [NFKBIB] ... 0.0879

* * *

# Test system: HeLa Kyoto
# ASSAY EXPLANATION: solubility in G1/S (NP-40 vs SDS abundance) (log2 ratio); higher = more soluble
# PROTOCOL CONDITIONS: cell cycle stage: G1/S
READOUT TYPE: solubility in G1/S (log2)

1. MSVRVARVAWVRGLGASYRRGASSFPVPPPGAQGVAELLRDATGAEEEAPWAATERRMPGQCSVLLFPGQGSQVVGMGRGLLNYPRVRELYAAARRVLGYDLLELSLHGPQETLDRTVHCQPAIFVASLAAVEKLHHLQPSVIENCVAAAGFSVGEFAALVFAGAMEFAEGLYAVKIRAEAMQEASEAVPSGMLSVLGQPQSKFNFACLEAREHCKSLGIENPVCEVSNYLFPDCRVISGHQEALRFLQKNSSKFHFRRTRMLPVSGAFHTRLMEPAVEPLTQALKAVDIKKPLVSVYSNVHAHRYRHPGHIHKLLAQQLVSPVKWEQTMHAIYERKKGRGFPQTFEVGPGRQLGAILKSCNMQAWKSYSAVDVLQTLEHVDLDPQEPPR [MT] ... -0.124
2. MQPASAKWYDRRDYVFIEFCVEDSKDVNVNFEKSKLTFSCLGGSDNFKHLNEIDLFHCIDPNDSKHKRTDRSILCCLRKGESGQSWPRLTKERAKLNWLSVDFNNWKDWEDDSDEDMSNFDRFSEMMNNMGGDEDVDLPEVDGADDDSQDSDDEKMPDLE [PTGES3] ... 0.0757
3. ARHGAP21 ... -0.453
4. MSAAGLLAPAPAQAGAPPAPEYYPEEDEELESAEDDERSCRGRESDEDTEDASETDLAKHDEEDYVEMKEQMYQDKLASLKRQLQQLQEGTLQEYQKRMKKLDQQYKERIRNAELFLQLETEQVERNYIKEKKAAVKEFEDKKVELKENLIAELEEKKKMIENEKLTMELTGDSMEVKPIMTRKLRRRPNDPVPIPDKRRKPAPAQLNYLLTDEQIMEDLRTLNKLKSPKRPASPSSPEHLPATPAESPAQRFEARIEDGKLYYDKRWYHKSQAIYLESKDNQKLSCVISSVGANEIWVRKTSDSTKMRIYLGQLQRGLFVIRRRSAA [SUDS3] ... 0.341

* * *

# Tested on: HeLa Kyoto
# ASSAY EXPLANATION: thermal stability score vs G1/S (z-score of summed log2 fold changes over temperatures); higher = more thermally stable than in G1/S
# PROTOCOL CONDITIONS: cell cycle stage: early G1 (4.5 h after nocodazole release)
READOUT TYPE: thermal stability score

1. MSLQWTAVATFLYAEVFVVLLLCIPFISPKRWQKIFKSRLVELLVSYGNTFFVVLIVILVLLVIDAVREIRKYDDVTEKVNLQNNPGAMEHFHMKLFRAQRNLYIAGFSLLLSFLLRRLVTLISQQATLLASNEAFKKQAESASEAAKKYMEENDQLKKGAAVDGGKLDVGNAEVKLEEENRSLKADLQKLKDELASTKQKLEKAENQVLAMRKQSEGLTKEYDRLLEEHAKLQAAVDGPMDKKEE [BCAP31] ... -4.24
2. MPEINTNHLDKQQVQLLAEMCILIDENDNKIGAETKKNCHLNENIEKGLLHRAFSVFLFNTENKLLLQQRSDAKITFPGCFTNTCCSHPLSNPAELEESDALGVRRAAQRRLKAELGIPLEEVPPEEINYLTRIHYKAQSDGIWGEHEIDYILLVRKNVTLNPDPNEIKSYCYVSKEELKELLKKAASGEIKITPWFKIIAATFLFKWWDNLNHLNQFVDHEKIYRM [IDI1] ... 0.472
3. MIALFNKLLDWFKALFWKEEMELTLVGLQYSGKTTFVNVIASGQFNEDMIPTVGFNMRKITKGNVTIKLWDIGGQPRFRSMWERYCRGVSAIVYMVDAADQEKIEASKNELHNLLDKPQLQGIPVLVLGNKRDLPGALDEKELIEKMNLSAIQDREICCYSISCKEKDNIDITLQWLIQHSKSRRS [ARL8A] ... -1.51
4. MRGAGAILRPAARGARDLNPRRDISSWLAQWFPRTPARSVVALKTPIKVELVAGKTYRWCVCGRSKKQPFCDGSHFFQRTGLSPLKFKAQETRMVALCTCKATQRPPYCDGTHRSERVQKAEVGSPL [CISD3] ... -0.749
5. MSKSLKKLVEESREKNQPEVDMSDRGISNMLDVNGLFTLSHITQLVLSHNKLTMVPPNIAELKNLEVLNFFNNQIEELPTQISSLQKLKHLNLGMNRLNTLPRGFGSLPALEVLDLTYNNLSENSLPGNFFYLTTLRALYLSDNDFEILPPDIGKLTKLQILSLRDNDLISLPKEIGELTQLKELHIQGNRLTVLPPELGNLDLTGQKQVFKAENNPWVTPIADQFQLGVSHVFEYIRSETYKYLYGRHMQANPEPPKKNNDKSKKISRKPLAAKNR [RSU1] ... -0.646
6. MASQLQNRLRSALALVTGAGSGIGRAVSVRLAGEGATVAACDLDRAAAQETVRLLGGPGSKEGPPRGNHAAFQADVSEARAARCLLEQVQACFSRPPSVVVSCAGITQDEFLLHMSEDDWDKVIAVNLKGTFLVTQAAAQALVSNGCRGSIINISSIVGKVGNVGQTNYAASKAGVIGLTQTAARELGRHGIRCNSVLPGFIATPMTQKVPQKVVDKITEMIPMGHLGDPEDVADVVAFLASEDSGYITGTSVEVTGGLFM [HSD17B8] ... -0.337

These entries and their values trace back to the supplement of paper PMC5998384.
